System: NCI-H460
TEST DETAILS: Cytotoxic activity against human H460 cells incubated for 48 hrs by MTT assay
Format: functional, cell-based
ASSAY CONTEXT: NCI-H460, 48 h
ASSAY ENDPOINT: pIC50
Numbers only, as −log10 of the molar value.

Reported pIC50, compound COc1cccc2c1C(=O)c1c(O)c3c(c(O)c1C2=O)C[C@@](O)(C(=O)CO)C[C@@H]3O[C@H]1C[C@H](N)[C@H](O)[C@H](C)O1 : ____
6.70
